- Tested on: XF 498 CNS
- Measurement description: NCI tumour cell line growth inhibition, 48 h
Label class 1 for high-side TGI (at or above 50 µM) and class 0 for low-side TGI (below it).

Query string: Quick check, TGI >= 50 µM? O=C1c2ccccc2C(=O)c2c(O)c(NCCNCCO)cc(O)c21
Result string: class 0

Query string: Please indicate if the recorded TGI for COc1ccc(/C(C#N)=C(/N)SCc2ccccc2Cl)cc1 meets or exceeds 50 µM.
Result string: class 0

Query string: Is reported TGI greater than or equal to 50 µM here: CC(=O)O/N=C/c1cc2c(cc1Br)OCO2
Result string: class 1

Query string: Could you please find out whether O=C1NN=CN2C(=O)CCC12 (stereo unspecified) has TGI that meets 50 µM or exceeds it?
Result string: class 1

Query string: Say whether c1ccc2c(CN3CCC(C4CCN(Cc5cccc6ccccc56)CC4)CC3)cccc2c1 shows TGI of 50 µM or more.
Result string: class 0

Query string: Tell me whether TGI is at least 50 µM here: Cc1cccc(N=C2NC(=O)C(CC(=O)Nc3ccccc3Cl)S2)c1 (stereo unspecified)
Result string: class 1

Query string: In plain terms: is recorded TGI at least 50 µM for O=c1cc(-c2ccc(O)cc2)oc2cc(O)cc(O)c12 ?
Result string: class 1

Query string: Exam item: decide whether the reported TGI for COc1ccc(/C=N\O[Si](C)(C)C(C)(C)C)cc1O[Si](C)(C)C(C)(C)C is at least 50 µM.
Result string: class 0

Query string: Can COc1cc2nncc(SCc3ccc(Cl)c(Cl)c3)c2cc1OC be said to have TGI at or above 50 µM?
Result string: class 1

Query string: State whether the measured TGI reaches 50 µM, counting equality as reaching it, for COc1ccc(C2C(Cl)C(=O)N2NC(=O)c2ccccc2O)cc1OC (stereo unspecified)
Result string: class 0

Query string: Identify whether the reported TGI of the following molecule is 50 µM or greater: COC(=O)C1=C(c2ccc(Cl)cc2)C(O)N=C(NN)N1 (stereo unspecified)
Result string: class 1

Query string: Textbook exercise: given the entry Cc1nc2nn(C)cc2c(=O)n1/N=C/c1ccccc1 , state whether its TGI is greater than or equal to 50 µM.
Result string: class 1

Query string: Given O=C(NC1C=Nc2ccccc2NC1=O)c1ccccc1Cl (stereo unspecified) , state whether its TGI is at least 50 µM.
Result string: class 1

Query string: Is it the case that CC1CC(=O)c2c(ccc3c2C(=O)c2cccc(O)c2C3=O)C1 (stereo unspecified) has TGI reaching or exceeding 50 µM?
Result string: class 0

Query string: I'd appreciate it if you could say whether O=C(O)C1CC2CC(=O)C1C2 (stereo unspecified) has TGI at least equal to 50 µM.
Result string: class 1

Query string: Record CC#Cc1c(C#CC)c(OC)c2c(c1OC)C(=O)c1ccccc1C2=O ; criterion: TGI no lower than 50 µM. Met?
Result string: class 1

----------
- Test system: SW-620 colon
- Measurement description: NCI tumour cell line growth inhibition, 48 h
Attribute measured: TGI

Query string: Enter measured TGI, system SW-620 colon, for the compound shown: CN(C)C(=S)SCC(N)=O
Result string: > 100 µM

Query string: Using SW-620 colon as the test system, report measured TGI of C=CC[C@H]1[C@H](O[Si](C)(C)C(C)(C)C)C=CC(=O)[C@@H]1CC(=O)OCC .
Result string: 33 µM

Query string: Send back SW-620 colon TGI of O=C1/C(=C\c2ccccc2)c2ccccc2N1/N=C\c1ccccc1 only.
Result string: > 100 µM

Query string: Fill in: TGI on SW-620 colon, entry COc1cc(NC(=O)c2cc(O)c(C/C=C(\C)CCC=C(C)C)c(O)c2)cc2c1O[C@]1(C)CC[C@@H](O)C(C)(C)[C@H]1C2
Result string: 13.1 µM

Query string: GET TGI where system = SW-620 colon and item = OC1c2ccccc2C2C(O)c3ccccc3C12 (stereo unspecified)
Result string: > 100 µM

Query string: Please tell me the measured TGI for Cc1ccc(S(=O)(=O)Nc2cc(Sc3ccccc3)c(O)c3ccccc23)cc1 ; system: SW-620 colon.
Result string: 16.2 µM

Query string: Print SW-620 colon TGI for O=C1/C(=C/c2ccc(Cl)cc2)Sc2scc(-c3cccc([N+](=O)[O-])c3)[n+]21 .
Result string: 3.82 µM

Query string: State TGI (SW-620 colon) of COC(=O)C1(C)OC(C)=NC1(C(=O)OC)C(=O)OC (stereo unspecified) .
Result string: > 100 µM

Query string: Report the value of TGI obtained on SW-620 colon for COC1C(OC(N)=O)C(O)C(Oc2ccc3c(O)c(NC(=O)c4ccc(O)c(CC=C(C)C)c4)c(=O)oc3c2C)OC1(C)C (stereo unspecified) .
Result string: > 100 µM

Query string: // fetch TGI; item: O=C(Cn1c2ccccc2c2ccncc21)N/N=C\c1ccc2ccccc2c1 ; system: SW-620 colon
Result string: > 100 µM

Query string: Would you please give the reported TGI of Nc1cc(N)c(N=Nc2cccc3c(S(=O)(=O)O)cccc23)cc1N=Nc1cc([N+](=O)[O-])ccc1O with SW-620 colon?
Result string: > 100 µM

Query string: Fill in TGI for Cc1ccc(N2C(=O)C(=O)N(/N=C3\C(=O)Nc4ccccc43)C2=S)cc1 tested with SW-620 colon.
Result string: > 100 µM

Query string: Name the recorded TGI of COC(=O)CNCC1OC2OC(C)(C)OC2C1N=[N+]=[N-] (stereo unspecified) , assay system SW-620 colon.
Result string: > 100 µM

Query string: State, for SW-620 colon, measured TGI of the compound listed here: COc1cccc(C(=O)N[C@@H]2[C@H](O)[C@@H](CO)O[C@H]2n2cnc3c(N)ncnc32)c1
Result string: > 100 µM

Query string: GET TGI | system: SW-620 colon | item: CN(CCO)/N=N/c1nc[nH]c1C(N)=O
Result string: > 100 µM

Query string: Param request: TGI | system SW-620 colon | item COC(=O)C1C(/C=C/c2ccoc2)ON2CCC[C@@H]12 (stereo partly specified)
Result string: > 100 µM

Query string: Fetch value of TGI on SW-620 colon for CN(C)C(=O)Oc1ccc(C(=S)Nc2ccccc2)cc1Br .
Result string: > 100 µM

Query string: Write down the reported TGI (system: SW-620 colon) of Nc1ccccc1C#C/C=C\C#Cc1ccccc1F
Result string: > 100 µM

Query string: Name the value of TGI reported for COc1ccc2c(c1)C=C1CSCC3=Cc4cc(OC)ccc4OC13O2 when tested on SW-620 colon.
Result string: > 100 µM

Query string: Enter TGI (test system SW-620 colon) for Cc1ccc(F)c2c(=O)cc(-c3ccccc3)[nH]c12
Result string: > 100 µM

Query string: For SW-620 colon, give TGI of the listed compound: Oc1ccc(Cn2c(-c3ccc(O)cc3)nc3ccccc32)cc1
Result string: > 100 µM

----------
- Test system: NCI-H226 lung
- Measurement description: NCI tumour cell line growth inhibition, 48 h
Attribute measured: GI50

Query string: Entry COc1cc2c(cc1OCCCCCn1c3ccccc3c3ccccc31)N=C[C@@H]1CCCN1C2=O needs its GI50 filled in; supply it.
Result string: 2.49 µM

Query string: Look up GI50 of O=C1NC(SCc2ccc(F)cc2)=N/C1=C/c1cccc(OCc2ccc(Cl)cc2)c1 and report it.
Result string: 5.42 µM

Query string: Quickly give me recorded GI50 for CN(C)N=Nc1nn(C(=O)Nc2ccc(Cc3ccccc3)cc2)c2ccccc12
Result string: > 100 µM

Query string: Supply GI50 value. Item: CCC(=O)c1c(C(F)(F)F)n([O-])c2ccccc2[n+]1=O
Result string: 2.09 µM

Query string: Check the records and state GI50 for Nc1cc(-c2ccccc2)n(C(=O)Nc2ccc(Oc3ccccc3)cc2)n1
Result string: 49.5 µM

----------
Consider the following compounds; for each one, report its TGI.
- Test system: DMS 114 small cell lung
- Measurement description: NCI tumour cell line growth inhibition, 48 h

Query string: Given COC(=O)C1=C(c2ccc(Cl)cc2)C(O)N=C(NN)N1 (stereo not drawn) , respond with its TGI.
Result string: > 100 µM

Query string: For the compound CC1CC(=O)c2c(ccc3c2C(=O)c2cccc(O)c2C3=O)C1 (stereo not drawn) , give its reported TGI.
Result string: 25.4 µM

Query string: Return TGI for the following compound: COc1nc(OC)nc(Sc2ccc(Sc3ccc(Sc4nc(OC)nc(OC)n4)cc3)cc2)n1
Result string: > 100 µM

----------
For each entry below, report its TGI value.
- System: HT29 colon
- Measurement description: NCI tumour cell line growth inhibition, 48 h

Query string: Please list TGI recorded for the compound Nc1ccc(C2=Nc3ccccc3SC(c3ccccc3O)C2)cc1 (stereo unspecified)
Result string: > 100 µM

Query string: Let me know recorded TGI for COC(=O)C1C(/C=C/c2ccoc2)ON2CCC[C@@H]12 (stereo partly specified) , thanks.
Result string: > 100 µM

Query string: Find the measured TGI of COC(=O)C1=C(O)C(C(=O)OC)[C@@]2(O)[C@@H](C(=O)OC)CC[C@@H]1[C@@H]2C(=O)OC (stereo partly specified) and report it.
Result string: > 100 µM

Query string: Answer with the recorded TGI for the compound listed here: COC(=O)c1nc(N)nc(C(=O)OC)c1C(=O)c1ccccc1
Result string: > 100 µM

Query string: Give me measured TGI, please, for this compound: Cc1ccc(Nc2cn(COCc3ccccc3)c(=O)[nH]c2=O)cc1
Result string: > 100 µM

Query string: Report TGI, nothing else, for this compound: CCOC(=O)/C=C1\Oc2ccccc2C1(C)O (stereo unspecified)
Result string: > 100 µM

Query string: Specify reported TGI for the compound shown: COc1nc(C)nc2c1ncn2Cc1ccccc1
Result string: > 100 µM

Query string: State its TGI: Nc1ccccc1C#C/C=C\C#Cc1ccccc1F
Result string: 47.6 µM

Query string: Consider the compound Cc1cc(Cl)ccc1Nc1nc(C(F)(F)F)ccc1C(=O)Nc1cccc(C(F)(F)F)c1 and give its recorded TGI.
Result string: 10.8 µM

Query string: Return the recorded TGI value; entry: CCOC(=O)c1c(NC(=O)c2ccc(Br)cc2)sc2c1CCCC2
Result string: > 100 µM

Query string: Annotate the compound O=C(NC1C=Nc2ccccc2NC1=O)c1ccccc1Cl (stereo unspecified) with its measured TGI.
Result string: > 100 µM

These measurements were taken from PubChem BioAssay (NCI).
